// provenance: PubChem BioAssay (Tox21)

METHOD DESCRIPTION: qHTS assay to identify small molecule antagonists of the estrogen related receptor (ERR) signaling pathway - cell viability counter screen (AID 1224818);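 further: viability measured after 17.5 h of compound exposure; on the % scale 0 is the no-effect control and ±100 the full control effect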
CONDITION PARAMETERS: ERR reporter cell line viability counter screen; series mostly up to 46.1 µM
Experimental: National Center for Advancing Translational Sciences [NCATS] NIH Chemical Genomics Center [NCGC] U.S. Environmental Protection Agency [EPA] National Institutes of Environmental Health Sciences [NIEHS] National Toxicology Program [NTP] U.S. Food and Drug Administration [FDA] […] The ERR cells were dispensed at 2,000 cells/5 ul/well in 1536-well white plates using a Multidrop dispenser. […] After 30 min incubation at 37 C/5% CO2, the fluorescence intensity in the plates was measured using a ViewLux plate reader.
Records with an inconclusive call do not appear. Active and inactive are the calls of the source. The call rests on the fitted dose curve; in most records, active means well fitted cell-killing curve with a large enough effect in the repeat runs; inconclusive means weak or mixed curves; inactive means flat fitted curve, though single readings scatter.
# output must be one of 1 (yes) (active), 0 (no) (inactive)

# MOLECULE, DISCRETE LABEL
data = [
    ("NC(=Nc1ccccc1)NC(=O)c1nc(Cl)c(N)nc1N", "0 (no)"),
    ("Nc1ccc(-c2nc3ccc(-c4nc5ccc(N)cc5[nH]4)cc3[nH]2)cc1", "0 (no)"),
    ("COc1cc2c(cc1O)CC[C@@H]1[C@@H]2CC[C@]2(C)[C@@H](O)CC[C@@H]12", "0 (no)"),
]

Now take the following molecule into account.
Lookup: Name the outcome recorded for CCCCOc1cc(CC2CNC(=O)N2)ccc1OC (stereo not drawn) in the assay.
Found: 0 (no)

* * *

MEASURED ON: Glucocorticoid receptor (Homo sapiens) (UniProt P04150)
Sequence (P04150 whole entry, looked up): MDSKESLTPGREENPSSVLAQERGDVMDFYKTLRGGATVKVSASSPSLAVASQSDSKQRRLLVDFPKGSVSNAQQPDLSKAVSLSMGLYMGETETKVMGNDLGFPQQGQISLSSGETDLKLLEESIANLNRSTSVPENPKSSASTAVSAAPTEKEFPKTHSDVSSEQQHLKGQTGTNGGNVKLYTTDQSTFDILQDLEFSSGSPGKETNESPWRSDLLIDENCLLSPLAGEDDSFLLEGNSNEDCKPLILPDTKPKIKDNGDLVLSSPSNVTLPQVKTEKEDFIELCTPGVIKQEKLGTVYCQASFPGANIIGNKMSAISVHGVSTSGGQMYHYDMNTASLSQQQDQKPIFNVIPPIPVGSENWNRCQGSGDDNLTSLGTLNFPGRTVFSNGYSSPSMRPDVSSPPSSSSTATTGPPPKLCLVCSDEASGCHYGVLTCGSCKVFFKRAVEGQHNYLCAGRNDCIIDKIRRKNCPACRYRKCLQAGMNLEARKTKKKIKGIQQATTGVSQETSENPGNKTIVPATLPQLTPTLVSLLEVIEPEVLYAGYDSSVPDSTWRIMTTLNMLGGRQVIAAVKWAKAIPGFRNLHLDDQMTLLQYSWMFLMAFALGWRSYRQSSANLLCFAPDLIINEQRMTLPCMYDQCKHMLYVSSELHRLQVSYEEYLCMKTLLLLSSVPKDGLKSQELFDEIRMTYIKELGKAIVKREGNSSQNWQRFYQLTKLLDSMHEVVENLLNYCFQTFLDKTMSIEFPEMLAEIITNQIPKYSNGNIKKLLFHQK
METHOD DESCRIPTION: qHTS assay to identify small molecule antagonists of the glucocorticoid receptor (GR) signaling pathway (AID 720692); further: potency means the concentration at half of the fitted maximal effect
CONDITION PARAMETERS: GR-bla HeLa, beta-lactamase FRET ratio, dexamethasone-stimulated, 18 h; series mostly up to 58.5 µM
Records with an inconclusive call do not appear. Activity calls are given as the source filed them. Calls follow the shape of the dose curve; as a rule, active = well fitted inhibition curve with a large enough effect in the signal ratio in the repeat runs (not every such curve was filed as active); inconclusive = weak or mixed curves, or effect the other way; inactive = no such curve, though single readings can be large or run the other way; the % refers to the signal ratio.
MEASUREMENT NAME: Potency

Guide cases for Potency, answers given:
# MOLECULE, Potency
records = [
    ("c1ccc(-n2cnnn2)cc1", "inactive"),
    ("C/C(=C(/CCO)SSCC1CCCO1)N(C=O)Cc1cnc(C)nc1N (stereo not given)", "inactive"),
    ("CCOC(=O)[C@H](CCc1ccccc1)N[C@@H](C)C(=O)N1[C@H](C(=O)O)C[C@H]2CCCC[C@@H]21", "inactive"),
    ("NS(=O)(=O)c1cc(Cl)c(Cl)c(S(N)(=O)=O)c1", "inactive"),
    ("OCCCNc1ccccc1", "inactive"),
    ("c1ccc(-c2ccc(C(c3ccccc3)n3ccnc3)cc2)cc1 (stereo not given)", "23.9 µM (active)"),
]

Lookup: Potency for COC1=C(OC)C(=O)C(C/C=C(\C)CC/C=C(\C)CC/C=C(\C)CC/C=C(\C)CC/C=C(\C)CC/C=C(\C)CC/C=C(\C)CC/C=C(\C)CC/C=C(\C)CCC=C(C)C)=C(C)C1=O ?
Found: inactive

Lookup: Also, Cc1ccc2nc(-c3ccc(N)cc3)sc2c1S(=O)(=O)O please.
Found: inactive

Lookup: Also, O=C1c2ccccc2C(=O)C1c1ccc(F)cc1 please.
Found: inactive

Lookup: Also, CC[N+](CC)(CC)CCC(O)(c1ccccc1)C1CCCCC1 (stereo not given) please.
Found: inactive
